Ref: patent US9040506B2

# ASSAY SYSTEM: UniProt:P06276
# Sequence (P06276 29-602): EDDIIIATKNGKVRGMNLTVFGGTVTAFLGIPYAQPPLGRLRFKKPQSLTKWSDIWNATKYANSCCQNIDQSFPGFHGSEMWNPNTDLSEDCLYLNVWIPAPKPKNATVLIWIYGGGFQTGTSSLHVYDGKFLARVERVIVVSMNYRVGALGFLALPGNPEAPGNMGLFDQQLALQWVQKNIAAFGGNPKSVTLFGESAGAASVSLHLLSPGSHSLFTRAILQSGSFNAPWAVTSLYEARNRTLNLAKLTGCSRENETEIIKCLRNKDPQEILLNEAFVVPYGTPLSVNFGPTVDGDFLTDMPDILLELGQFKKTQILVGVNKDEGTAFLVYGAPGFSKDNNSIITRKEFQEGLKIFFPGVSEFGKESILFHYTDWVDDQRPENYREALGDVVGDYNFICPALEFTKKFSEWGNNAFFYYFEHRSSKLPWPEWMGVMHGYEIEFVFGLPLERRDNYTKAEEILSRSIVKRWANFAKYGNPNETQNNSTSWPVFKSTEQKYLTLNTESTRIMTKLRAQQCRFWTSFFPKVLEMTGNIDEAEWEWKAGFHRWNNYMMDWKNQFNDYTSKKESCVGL
# TEST DETAILS: IC50 rh-BuChE
# Assay type: biochemical
# STATED CONDITIONS: read-out: IC50 rh-BuChE
MEASUREMENT TYPE: pIC50
When answering, recall that pIC50 equals minus log10 of the concentration in mol/L, and write that number alone.

Example entries and their recorded answers appear below.
COMPOUND	MEASUREMENT TYPE	REPORTED RESULT
[N-]=[N+]=NCCCCC1=CC2Cc3nc4cc(Cl)ccc4c(N)c3C(C1)C2 (stereo not shown)	pIC50	6.59
Nc1c2c(nc3cc(Cl)ccc13)CC1C=C(CCCl)CC2C1 (stereo not shown)	pIC50	6.68
Nc1c2c(nc3cc(Cl)ccc13)CC1C=C(CCCCn3cc(CO)nn3)CC2C1 (stereo not shown)	pIC50	6.67

Inquiry: Hello, I am looking for reported pIC50 with UniProt:P06276 for N#CCCC1=CC2Cc3nc4cc(Cl)ccc4c(N)c3C(C1)C2 (stereo not shown) . Could you help?
Reply text: 6.29
